Biological target: memapsin 2 (Homo sapiens)
Assay: Inhibition of memapsin 2 catalytic activity (Ki)
Type: biochemical
Settings: memapsin 2, pH 4, 37° C.; read-out: M2K

[
  {
    "Compound": "Cc1csc(CN(C)C(=O)c2cccc(C(=O)NC(Cc3ccccc3)C(O)CNC(C)c3ccccc3)c2)n1 (stereo not drawn)",
    "Study Target": "memapsin 2 (Homo sapiens)",
    "Ki": "> 501 nM"
  },
  {
    "Compound": "CC(NC(=O)c1cc(C(=O)NC(Cc2ccccc2)C(O)CNCc2cccc(OC(F)F)c2)cc(N(C)S(C)(=O)=O)c1)c1ccccc1 (stereo not drawn)",
    "Study Target": "memapsin 2 (Homo sapiens)",
    "Ki": "< 300 nM"
  },
  {
    "Compound": "COc1cccc(CNCC(O)C(Cc2ccccc2)NC(=O)c2cc(C(=O)NC(C)c3ccccc3)cc([N+](=O)[O-])c2)c1 (stereo not drawn)",
    "Study Target": "memapsin 2 (Homo sapiens)",
    "Ki": "301 to 500 nM"
  },
  {
    "Compound": "Cc1csc(CN(C)C(=O)c2cccc(C(=O)NC(Cc3ccccc3)C(O)CNCc3cccc(OC(F)F)c3)c2)n1 (stereo not drawn)",
    "Study Target": "memapsin 2 (Homo sapiens)",
    "Ki": "< 300 nM"
  },
  {
    "Compound": "CC(NC(=O)c1cc(C(=O)NC(Cc2ccccc2)C(O)CNCc2cccc(CN(C)C)c2)cc(N(C)S(C)(=O)=O)c1)c1ccccc1 (stereo not drawn)",
    "Study Target": "memapsin 2 (Homo sapiens)",
    "Ki": "< 300 nM"
  },
  {
    "Compound": "COc1ccc(CCNCC(O)C(Cc2ccccc2)NC(=O)c2cc(C(=O)NC(C)c3ccccc3)cc(N(C)S(C)(=O)=O)c2)cc1O (stereo not drawn)",
    "Study Target": "memapsin 2 (Homo sapiens)",
    "Ki": "< 300 nM"
  },
  {
    "Compound": "Cc1csc(CN(C)C(=O)c2cccc(C(=O)NC(Cc3ccccc3)C(O)CNCc3cncc(CC(C)C)c3)c2)n1 (stereo not drawn)",
    "Study Target": "memapsin 2 (Homo sapiens)",
    "Ki": "< 300 nM"
  },
  {
    "Compound": "COc1cccc(CNCC(O)C(Cc2ccccc2)NC(=O)c2cc(C(=O)NC(C)c3ccccc3)cc(N(C)S(C)(=O)=O)c2)c1F (stereo not drawn)",
    "Study Target": "memapsin 2 (Homo sapiens)",
    "Ki": "< 300 nM"
  },
  {
    "Compound": "COc1cccc(CNCC(O)C(Cc2ccccc2)NC(=O)c2cc(CS(C)(=O)=O)cc(C(=O)NC(C)c3ccccc3)c2)c1 (stereo not drawn)",
    "Study Target": "memapsin 2 (Homo sapiens)",
    "Ki": "< 300 nM"
  },
  {
    "Compound": "COc1cccc(CCNCC(O)C(Cc2ccccc2)NC(=O)c2cc(C(=O)NC(C)c3ccccc3)cc(N(C)S(C)(=O)=O)c2)c1 (stereo not drawn)",
    "Study Target": "memapsin 2 (Homo sapiens)",
    "Ki": "< 300 nM"
  },
  {
    "Compound": "CC(NC(=O)c1cc(C(=O)NC(Cc2ccccc2)C(O)CNCc2cnccn2)cc(N(C)S(C)(=O)=O)c1)c1ccccc1 (stereo not drawn)",
    "Study Target": "memapsin 2 (Homo sapiens)",
    "Ki": "< 300 nM"
  },
  {
    "Compound": "Cc1csc(CN(C)C(=O)c2cccc(C(=O)NC(Cc3ccccc3)C(O)CNCc3cccc(F)c3)c2)n1 (stereo not drawn)",
    "Study Target": "memapsin 2 (Homo sapiens)",
    "Ki": "> 501 nM"
  },
  {
    "Compound": "CC(NC(=O)c1cc(C(=O)NC(Cc2ccccc2)C(O)CNCC2CCNCC2)cc(N(C)S(C)(=O)=O)c1)c1ccccc1 (stereo not drawn)",
    "Study Target": "memapsin 2 (Homo sapiens)",
    "Ki": "> 501 nM"
  },
  {
    "Compound": "CCOc1cccc(CNCC(O)C(Cc2ccccc2)NC(=O)c2cc(C(=O)NC(C)c3ccccc3)cc(N(C)S(C)(=O)=O)c2)c1 (stereo not drawn)",
    "Study Target": "memapsin 2 (Homo sapiens)",
    "Ki": "< 300 nM"
  },
  {
    "Compound": "CC(NCC(O)C(Cc1ccccc1)NC(=O)c1cc(C(=O)NC(C)c2ccccc2)cc(N(C)S(C)(=O)=O)c1)c1cccnc1 (stereo not drawn)",
    "Study Target": "memapsin 2 (Homo sapiens)",
    "Ki": "< 300 nM"
  }
]

====

Biological target: memapsin 2 (Homo sapiens, UniProt P56817)
Sequence (P56817 46-501): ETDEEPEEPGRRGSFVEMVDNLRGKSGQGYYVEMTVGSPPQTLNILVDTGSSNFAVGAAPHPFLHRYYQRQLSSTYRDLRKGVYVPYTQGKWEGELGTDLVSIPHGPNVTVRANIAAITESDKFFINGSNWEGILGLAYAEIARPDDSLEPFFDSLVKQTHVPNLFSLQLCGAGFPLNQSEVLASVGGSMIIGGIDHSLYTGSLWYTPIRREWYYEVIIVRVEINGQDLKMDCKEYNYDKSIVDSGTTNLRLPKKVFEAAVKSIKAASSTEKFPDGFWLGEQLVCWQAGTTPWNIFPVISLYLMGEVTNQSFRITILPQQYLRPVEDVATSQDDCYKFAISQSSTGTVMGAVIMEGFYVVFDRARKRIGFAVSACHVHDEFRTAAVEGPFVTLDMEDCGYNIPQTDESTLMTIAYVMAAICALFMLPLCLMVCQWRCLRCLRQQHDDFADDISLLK
Test: Inhibition of memapsin 2 catalytic activity (Ki)
Assay type: biochemical
Settings: memapsin 2, pH 4, 37° C.; read-out: M2K
Procedure: Potency of compounds were determined by measurement of their inhibition of memapsin 2 catalytic activity toward a fluorescent substrate. […] Briefly, assays were performed at pH 4, 37° C., by pre-incubation of memapsin 2 enzyme with compound for 20 minutes. Activity measure was initiated by addition of a fluorogenic substrate FS-2 (Bachem Americas, Torrance, Calif.). Fluorescent signal increase over time was measured as a rate of hydrolysis of the peptide substrate. […]
Result Type: Ki

[
  {
    "Compound": "Cc1csc(CN(C)C(=O)c2cccc(C(=O)NC(Cc3ccccc3)C(O)CNCc3cccc(OCC(C)C)c3)c2)n1 (stereo not drawn)",
    "Result Value": "< 300 nM"
  },
  {
    "Compound": "COC1CCCC(CNCC(O)C(Cc2ccccc2)NC(=O)c2cc(C(=O)NC(C)c3ccccc3)cc(N(C)S(C)(=O)=O)c2)C1 (stereo not drawn)",
    "Result Value": "> 501 nM"
  },
  {
    "Compound": "CCc1cccc(CNCC(O)C(Cc2ccccc2)NC(=O)c2cc(C(=O)NC(C)c3ccccc3)cc(N(C)S(C)(=O)=O)c2)c1 (stereo not drawn)",
    "Result Value": "< 300 nM"
  },
  {
    "Compound": "COc1cccc(CNCC(O)C(Cc2ccccc2OC)NC(=O)c2cc(C(=O)NC(C)c3ccccc3)cc(N(C)S(C)(=O)=O)c2)c1 (stereo not drawn)",
    "Result Value": "301 to 500 nM"
  },
  {
    "Compound": "Cc1csc(CN(C)C(=O)c2cccc(C(=O)NC(Cc3ccccc3)C(O)CNCc3ccccc3)c2)n1 (stereo not drawn)",
    "Result Value": "> 501 nM"
  },
  {
    "Compound": "Cc1ccc(CNCC(O)C(Cc2ccccc2)NC(=O)c2cc(C(=O)NC(C)c3ccccc3)cc(N(C)S(C)(=O)=O)c2)o1 (stereo not drawn)",
    "Result Value": "< 300 nM"
  },
  {
    "Compound": "COc1cccc(CNCC(O)C(Cc2ccccc2)NC(=O)c2cc(C(=O)NN(C)c3ccccc3)cc(N(C)S(C)(=O)=O)c2)c1 (stereo not drawn)",
    "Result Value": "< 300 nM"
  },
  {
    "Compound": "Cc1cc(C(C)NCC(O)C(Cc2ccccc2)NC(=O)c2cc(C(=O)NC(C)c3ccccc3)cc(N(C)S(C)(=O)=O)c2)on1 (stereo not drawn)",
    "Result Value": "< 300 nM"
  },
  {
    "Compound": "COc1ccc(CCNCC(O)C(Cc2ccccc2)NC(=O)c2cc(C(=O)NC(C)c3ccccc3)cc(N(C)S(C)(=O)=O)c2)cc1OC (stereo not drawn)",
    "Result Value": "< 300 nM"
  },
  {
    "Compound": "Cc1cc(CNCC(O)C(Cc2ccccc2)NC(=O)c2cc(C(=O)NC(C)c3ccccc3)cc(N(C)S(C)(=O)=O)c2)no1 (stereo not drawn)",
    "Result Value": "< 300 nM"
  },
  {
    "Compound": "CC(C)Oc1cncc(CNCC(O)C(Cc2ccccc2)NC(=O)c2cc(C(=O)NC(C)c3ccccc3)cc(N(C)S(C)(=O)=O)c2)c1 (stereo not drawn)",
    "Result Value": "< 300 nM"
  },
  {
    "Compound": "COc1cncc(CNCC(O)C(Cc2ccccc2)NC(=O)c2cccc(C(=O)N(C)Cc3nc(C)cs3)c2)c1 (stereo not drawn)",
    "Result Value": "< 300 nM"
  },
  {
    "Compound": "CC(NC(=O)c1cc(C(=O)NC(Cc2ccccc2)C(O)CNCc2cnc3ccccc3c2)cc(N(C)S(C)(=O)=O)c1)c1ccccc1 (stereo not drawn)",
    "Result Value": "< 300 nM"
  },
  {
    "Compound": "CCc1cncc(CNCC(O)C(Cc2ccccc2)NC(=O)c2cccc(C(=O)N(C)Cc3nc(C)cs3)c2)c1 (stereo not drawn)",
    "Result Value": "< 300 nM"
  },
  {
    "Compound": "CC(C)Cc1cccc(CNCC(O)C(Cc2ccccc2)NC(=O)c2cc(C(=O)NC(C)c3ccccc3)cc(N(C)S(C)(=O)=O)c2)c1 (stereo not drawn)",
    "Result Value": "< 300 nM"
  }
]
